system: Escherichia coli TOP10; experiment: shrunken log2 fold change of peptide-encoding DNA abundance (4.5 h post-induction vs induction); higher = less antimicrobial activity (less host growth inhibition); conditions: time post-induction: 4.5 h; library: site-saturation at positions 5, 18, 19, 20
Please provide measured shrunken log2 fold change for the entries that follow.
Provide a numeric answer; units are not to be included.

Query block: Which shrunken log2 fold change is listed for RRIRPRPPRLPRPRPRPEVSPRP ?
Result block: 0.0949

Query block: Which shrunken log2 fold change is listed for RRIRKRPPRLPRPRPRPAPWPRP ?
Result block: 0.82

Query block: Which shrunken log2 fold change is listed for RRIRTRPPRLPRPRPRPGNLPRP ?
Result block: 0.021

Query block: Which shrunken log2 fold change is listed for RRIRMRPPRLPRPRPRPLVVPRP ?
Result block: 0.0644

Query block: Which shrunken log2 fold change is listed for RRIRVRPPRLPRPRPRPDCEPRP ?
Result block: -0.0964

Query block: Which shrunken log2 fold change is listed for RRIRERPPRLPRPRPRPTAGPRP ?
Result block: 0.161

Query block: Which shrunken log2 fold change is listed for RRIRARPPRLPRPRPRPLWFPRP ?
Result block: 0.145

Query block: Which shrunken log2 fold change is listed for RRIRIRPPRLPRPRPRPCFIPRP ?
Result block: -0.503

Query block: Which shrunken log2 fold change is listed for RRIRERPPRLPRPRPRPWMNPRP ?
Result block: -0.0137

Query block: Which shrunken log2 fold change is listed for RRIRCRPPRLPRPRPRPMVCPRP ?
Result block: -0.143

Query block: Which shrunken log2 fold change is listed for RRIRIRPPRLPRPRPRPVNLPRP ?
Result block: -0.116

Query block: Which shrunken log2 fold change is listed for RRIRARPPRLPRPRPRPLFPPRP ?
Result block: 0.148

Query block: Which shrunken log2 fold change is listed for RRIRPRPPRLPRPRPRPFGQPRP ?
Result block: -0.34

Query block: Which shrunken log2 fold change is listed for RRIRERPPRLPRPRPRPEAAPRP ?
Result block: 0.575

Query block: Which shrunken log2 fold change is listed for RRIRQRPPRLPRPRPRPDDVPRP ?
Result block: 0.064

###

test system: Escherichia coli TOP10; experiment: shrunken log2 fold change of peptide-encoding DNA abundance (4.5 h post-induction vs induction); higher = less antimicrobial activity (less host growth inhibition); details: time post-induction: 4.5 h; library: site-saturation at positions 5, 18, 19, 20;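 also: peptides expressed intracellularly from a pBAD plasmid library in pooled LB shake-flask culture, induced with 0.3% L-arabinose, DNA abundance read by NGS, three biological replicates, DESeq2 with apeglm shrinkage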
Please provide measured shrunken log2 fold change for the entries that follow.
Provide a numeric answer; units are not to be included.

Query block: Lab note: need shrunken log2 fold change for RRIRLRPPRLPRPRPRPTFYPRP on Escherichia coli TOP10, anyone have it?
Result block: -0.273

Query block: Lab note: need shrunken log2 fold change for RRIRDRPPRLPRPRPRPYYNPRP on Escherichia coli TOP10, anyone have it?
Result block: -1.01

Query block: Lab note: need shrunken log2 fold change for RRIRYRPPRLPRPRPRPSKFPRP on Escherichia coli TOP10, anyone have it?
Result block: -0.299

Query block: Lab note: need shrunken log2 fold change for RRIRGRPPRLPRPRPRPYCLPRP on Escherichia coli TOP10, anyone have it?
Result block: -0.305

Query block: Lab note: need shrunken log2 fold change for RRIRERPPRLPRPRPRPVIIPRP on Escherichia coli TOP10, anyone have it?
Result block: -0.634

Query block: Lab note: need shrunken log2 fold change for RRIRLRPPRLPRPRPRPNVCPRP on Escherichia coli TOP10, anyone have it?
Result block: -0.0138

Query block: Lab note: need shrunken log2 fold change for RRIRRRPPRLPRPRPRPCMEPRP on Escherichia coli TOP10, anyone have it?
Result block: -0.174

Query block: Lab note: need shrunken log2 fold change for RRIRARPPRLPRPRPRPIVMPRP on Escherichia coli TOP10, anyone have it?
Result block: -0.0831

Query block: Lab note: need shrunken log2 fold change for RRIRERPPRLPRPRPRPFARPRP on Escherichia coli TOP10, anyone have it?
Result block: 0.102

Query block: Lab note: need shrunken log2 fold change for RRIRIRPPRLPRPRPRPHPLPRP on Escherichia coli TOP10, anyone have it?
Result block: -0.516

Query block: Lab note: need shrunken log2 fold change for RRIRARPPRLPRPRPRPIMCPRP on Escherichia coli TOP10, anyone have it?
Result block: -0.0139

Query block: Lab note: need shrunken log2 fold change for RRIRRRPPRLPRPRPRPKWHPRP on Escherichia coli TOP10, anyone have it?
Result block: 0.593

Query block: Lab note: need shrunken log2 fold change for RRIRERPPRLPRPRPRPWCNPRP on Escherichia coli TOP10, anyone have it?
Result block: -0.112

Query block: Lab note: need shrunken log2 fold change for RRIRFRPPRLPRPRPRPDCCPRP on Escherichia coli TOP10, anyone have it?
Result block: -0.0954

Query block: Lab note: need shrunken log2 fold change for RRIRTRPPRLPRPRPRPKLLPRP on Escherichia coli TOP10, anyone have it?
Result block: 0.272
